Source: paper PMC4738305

procedure details: Concentration and elimination of ADP and its metabolites in liver, kidney, muscle, fat/skin after oral ^3H-ADP for 7 d
Format: in vivo, carp
condition: carp, kidney, oral, 5 mg/kg b.w.
parameter measured: concentration at 3 d
Kindly report the value followed by its unit.

CNc1c(OC)cc(Cc2cnc(N)nc2N)cc1OC: 820 ng/g

Q. Please report the recorded concentration at 3 d for `COc1cc(Cc2cnc(N)nc2N)cc(OC)c1N(C)C` .
A. 3010 ng/g

###

procedure details: Concentration and elimination of ADP and its metabolites in liver, kidney, muscle, fat/skin after oral ^3H-ADP for 7 d
Format: in vivo, swine
condition: swine, kidney, oral, 5 mg/kg b.w.
parameter measured: concentration at 14 d
Kindly report the value followed by its unit.

Q. Please report the recorded concentration at 14 d for COc1cc(Cc2cnc(N)nc2N)cc(OC)c1N(C)C [A0] .
A. 110 ng/g

###

Field: concentration at 1 d. Provide a value for each of the compounds that follow.
procedure details: Concentration and elimination of ADP and its metabolites in liver, kidney, muscle, fat/skin after oral ^3H-ADP for 7 d
Assay type: in vivo, swine
condition: swine, kidney, oral, 5 mg/kg b.w.

Solved entries (count: 5):
COc1cc(Cc2cnc(N)nc2N)cc(OC)c1N(C)C [A0]: 4160 ng/g
CNc1c(OC)cc(C(O)c2cnc(N)nc2N)cc1OC (stereo not drawn) [A5, 4-methylamino-α-OH-ADP]: 270 ng/g
CNc1c(O)cc(C(O)c2cnc(N)nc2N)cc1OC (stereo not drawn) [A4, 3-OH-4-methylamino-ADP]: 480 ng/g
COc1cc(Cc2cnc(N)nc2N)cc(OC)c1N [A2, N-didesmethyl-ADP]: 1300 ng/g
CNc1c(OC)cc(Cc2cnc(N)nc2N)cc1OC [A1, N-monodesmethyl-ADP]: 3430 ng/g

Below: the item to evaluate.
Q. Please report the recorded concentration at 1 d for COc1cc(C(O)c2cnc(N)nc2N)cc(O)c1N(C)C (stereo not drawn) [A6, 3-OH-α-OH-ADP] .
A. 60 ng/g

###

procedure details: Concentration and elimination of ADP and its metabolites in liver, kidney, muscle, fat/skin after oral ^3H-ADP for 7 d
Format: in vivo, swine
condition: swine, liver, oral, 5 mg/kg b.w.
parameter measured: concentration at 0.25 d (ng/g)
One number for each entry, in ng/g.

Solved entries (count: 6):
COc1cc(Cc2cnc(N)nc2N)cc(OC)c1N [A2, N-didesmethyl-ADP]: 2440
COc1cc(Cc2cnc(N)nc2N)cc(OC)c1N(C)C [A0]: 7600
CNc1c(OC)cc(Cc2cnc(N)nc2N)cc1OC [A1, N-monodesmethyl-ADP]: 4620
COc1cc(C(O)c2cnc(N)nc2N)cc(O)c1N(C)C (stereo not drawn) [A6, 3-OH-α-OH-ADP]: 360
CNc1c(OC)cc(C(O)c2cnc(N)nc2N)cc1OC (stereo not drawn) [A5, 4-methylamino-α-OH-ADP]: 430
COc1cc(C(O)c2cnc(N)nc2N)cc(OC)c1N(C)C (stereo not drawn) [A8, α-OH-ADP]: 20

Please state concentration at 0.25 d for every molecule in the list that follows.
1. COc1cc(Cc2cnc(N)nc2N)cc(O)c1N(C)C [A3, 3-OH-ADP]
2. CNc1c(O)cc(Cc2cnc(N)nc2N)cc1OC [A7, 4-methylamino-3-OH-ADP]
3. CNc1c(O)cc(C(O)c2cnc(N)nc2N)cc1OC (stereo not drawn) [A4, 3-OH-4-methylamino-ADP]

A.
1. 940
2. 790
3. 320

###

procedure details: Concentration and elimination of ADP and its metabolites in liver, kidney, muscle, fat/skin after oral ^3H-ADP for 7 d
Format: in vivo, carp
condition: carp, skin, oral, 5 mg/kg b. w.
Field: concentration at 3 d. Provide a value for each of the compounds that follow.
One number for each entry, in ng/g.

COc1cc(Cc2cnc(N)nc2N)cc(OC)c1N(C)C: 1330

Below: the item to evaluate.
Q. Please report the recorded concentration at 3 d for `CNc1c(OC)cc(Cc2cnc(N)nc2N)cc1OC` .
A. 140

###

procedure details: Concentration and elimination of ADP and its metabolites in liver, kidney, muscle, fat/skin after oral ^3H-ADP for 7 d
Format: in vivo, rats
condition: rat, fat, oral, 5 mg/kg b. w.
parameter measured: concentration at 3 d (ng/g)
Numbers only, in ng/g.

Q. Please report the recorded concentration at 3 d for `COc1cc(Cc2cnc(N)nc2N)cc(OC)c1N(C)C` .
A. 80

###

procedure details: Concentration and elimination of ADP and its metabolites in liver, kidney, muscle, fat/skin after oral ^3H-ADP for 7 d
Format: in vivo, rats
condition: po; rat muscle, after 5 mg/kg b. w. for 7 days; read-out: t1/2 of the individual compound (converted)
parameter measured: half-life (h)
Answers are plain numbers, in h.

Q. Please report the recorded half-life for `COc1cc(Cc2cnc(N)nc2N)cc(OC)c1N(C)C` .
A. 70.8

###

procedure details: Concentration and elimination of ADP and its metabolites in liver, kidney, muscle, fat/skin after oral ^3H-ADP for 7 d
Format: in vivo, swine
condition: swine, fat, oral, 5 mg/kg b.w.
parameter measured: concentration at 1 d (ng/g)
Give bare numbers, in ng/g.

COc1cc(Cc2cnc(N)nc2N)cc(OC)c1N(C)C: 510

Below: the item to evaluate.
Q. Please report the recorded concentration at 1 d for `CNc1c(OC)cc(Cc2cnc(N)nc2N)cc1OC` .
A. 60

###

procedure details: Concentration and elimination of ADP and its metabolites in liver, kidney, muscle, fat/skin after oral ^3H-ADP for 7 d
Type: in vivo, broilers
condition: broiler chicken, kidney, oral, 5 mg/kg b.w.
Field: concentration at 0.25 d. Provide a value for each of the molecules that follow.
Give bare numbers, in ng/g.

COc1cc(Cc2cnc(N)nc2N)cc(O)c1N(C)C: 110

Please state concentration at 0.25 d for every molecule in the list that follows.
1. COc1cc(Cc2cnc(N)nc2N)cc(OC)c1N(C)C
2. CNc1c(OC)cc(Cc2cnc(N)nc2N)cc1OC
3. COc1cc(Cc2cnc(N)nc2N)cc(OC)c1N

A.
15400
6060
1200

###

procedure details: Concentration and elimination of ADP and its metabolites in liver, kidney, muscle, fat/skin after oral ^3H-ADP for 7 d
Type: in vivo, rats
condition: rat, kidney, oral, 5 mg/kg b.w.
parameter measured: concentration at 0.25 d (ng/g)
Numbers only, in ng/g.

Solved entries (count: 2):
COc1cc(Cc2cnc(N)nc2N)cc(OC)c1N: 370
COc1cc(Cc2cnc(N)nc2N)cc(OC)c1N(C)C: 3800

Q. Please report the recorded concentration at 0.25 d for `CNc1c(OC)cc(Cc2cnc(N)nc2N)cc1OC` .
A. 2650

###

procedure details: Concentration and elimination of ADP and its metabolites in liver, kidney, muscle, fat/skin after oral ^3H-ADP for 7 d
Type: in vivo, rats
condition: po; rat fat, after 5 mg/kg b. w. for 7 days; read-out: t1/2 of the individual compound (converted)
parameter measured: half-life (h)
Answers are plain numbers, in h.

Q. Please report the recorded half-life for `COc1cc(Cc2cnc(N)nc2N)cc(OC)c1N(C)C` .
A. 62.2

###

procedure details: Concentration and elimination of ADP and its metabolites in liver, kidney, muscle, fat/skin after oral ^3H-ADP for 7 d
Format: in vivo, carp
condition: carp, kidney, oral, 5 mg/kg b.w.
parameter measured: concentration at 7 d (ng/g)
Answers are plain numbers, in ng/g.

COc1cc(Cc2cnc(N)nc2N)cc(OC)c1N(C)C: 1190

Q. Please report the recorded concentration at 7 d for `CNc1c(OC)cc(Cc2cnc(N)nc2N)cc1OC` .
A. 380

###

procedure details: Concentration and elimination of ADP and its metabolites in liver, kidney, muscle, fat/skin after oral ^3H-ADP for 7 d
Assay type: in vivo, broilers
condition: po; broiler liver, after 5 mg/kg b. w. for 7 days; read-out: t1/2 of the individual compound (converted)
parameter measured: half-life (h)
Give bare numbers, in h.

COc1cc(Cc2cnc(N)nc2N)cc(OC)c1N(C)C: 81.6

Q. Please report the recorded half-life for `CNc1c(OC)cc(Cc2cnc(N)nc2N)cc1OC` .
A. 25.2
